assay: Solubility test in FaSSIF or water, shaken at 37° C., filtrate measured by HPLC; settings: FaSSIF, 37 °C, thermodynamic from solid
Assay Endpoint: solubility at 2 h (µg/mL)
State the answer as a number, implicitly in µg/mL.

[ask] Report solubility at 2 h for C[C@]12CC[C@@H]3c4ccc(O)cc4C[C@@H](CCCCCCCCC[S+]([O-])CCCC(F)(F)C(F)(F)F)[C@H]3[C@@H]1CC[C@@H]2O (stereo partly shown) please.
[reply] 0.474

* * *

test: Solubility test in FaSSIF or water, shaken at 37° C., filtrate measured by HPLC; details: FaSSIF, 37 °C, thermodynamic from solid
Assay Endpoint: solubility at 1 h (µg/mL)
Numeric only. Scale: µg/mL

[ask] Give the measured solubility at 1 h of C[C@]12CC[C@@H]3c4ccc(O)cc4C[C@@H](CCCCCCCCC[S+]([O-])CCCC(F)(F)C(F)(F)F)[C@H]3[C@@H]1CC[C@@H]2O (stereo partly shown) .
[reply] 0.365
